MIC values for the compounds below.
System: Escherichia coli
Experiment: Antibacterial activity against Escherichia coli 20411 clinical isolate incubated for 18 to 24 hrs by broth microdilution method
Format: functional
Where a SMILES comes first, the peptide text is derived from it.
Please give the number followed by its unit.

CCn1cc(C(=O)O)c(=O)c2cc(F)c(N3CCNCC3)cc21 [NORFLOXACIN]    0.0625 µM
CC(C)[C@H](NC(=O)[C@H](CCCCN)NC(=O)[C@H](Cc1c[nH]c2ccccc12)NC(=O)[C@H](CCCCN)NC(=O)[C@@H](NC(=O)[C@H](CCCCN)NC(=O)[C@H](Cc1c[nH]c2ccccc12)NC(=O)[C@H](CCCCN)NC(=O)[C@@H](NC(=O)[C@H](CCCCN)NC(=O)[C@@H](N)Cc1c[nH]c2ccccc12)C(C)C)C(C)C)C(=O)N[C@@H](CCCCN)C(N)=O (H-WKVKWKVKWKVK-NH2)    1 µM
CC[C@H]1OC(=O)[C@H](C)[C@@H](O[C@H]2C[C@@](C)(OC)[C@@H](O)[C@H](C)O2)[C@H](C)[C@@H](O[C@@H]2O[C@H](C)C[C@H](N(C)C)[C@H]2O)[C@](C)(O)C[C@@H](C)C(=O)[C@H](C)[C@@H](O)[C@]1(C)O [ERYTHROMYCIN]    64 µM
CC[C@H](C)[C@H](NC(=O)[C@H](CCCCN)NC(=O)[C@H](Cc1c[nH]c2ccccc12)NC(=O)[C@H](CCCCN)NC(=O)[C@@H](NC(=O)[C@H](CCCCN)NC(=O)[C@H](Cc1c[nH]c2ccccc12)NC(=O)[C@H](CCCCN)NC(=O)[C@@H](NC(=O)[C@H](CCCCN)NC(=O)[C@@H](N)Cc1c[nH]c2ccccc12)[C@@H](C)CC)[C@@H](C)CC)C(=O)N[C@@H](CCCCN)C(N)=O (H-WKIKWKIKWKIK-NH2)    2 µM
CC(C)[C@H](NC(=O)[C@H](CCCNC(=N)N)NC(=O)[C@H](Cc1c[nH]c2ccccc12)NC(=O)[C@H](CCCNC(=N)N)NC(=O)[C@@H](NC(=O)[C@H](CCCCN)NC(=O)[C@H](Cc1c[nH]c2ccccc12)NC(=O)[C@H](CCCNC(=N)N)NC(=O)[C@@H](NC(=O)[C@H](CCCNC(=N)N)NC(=O)[C@@H](N)Cc1c[nH]c2ccccc12)C(C)C)[C@@H](C)O)C(=O)N[C@@H](CCCCN)C(N)=O (H-WRVRWKTRWRVK-NH2)    4 µM
CN[C@H](CC(C)C)C(=O)N[C@H]1C(=O)N[C@@H](CC(N)=O)C(=O)N[C@H]2C(=O)N[C@H]3C(=O)N[C@H](C(=O)N[C@H](C(=O)O)c4cc(O)cc(O)c4-c4cc3ccc4O)[C@H](O)c3ccc(c(Cl)c3)Oc3cc2cc(c3O[C@@H]2O[C@H](CO)[C@@H](O)[C@H](O)[C@H]2O[C@H]2C[C@](C)(N)[C@H](O)[C@H](C)O2)Oc2ccc(cc2Cl)[C@H]1O [VANCOMYCIN]    64 µM
CC(C)C[C@H](NC(=O)[C@H](CCCNC(=N)N)NC(=O)[C@H](Cc1c[nH]c2ccccc12)NC(=O)[C@H](CCCNC(=N)N)NC(=O)[C@@H](NC(=O)[C@H](CCCNC(=N)N)NC(=O)[C@H](Cc1c[nH]c2ccccc12)NC(=O)[C@H](CCCNC(=N)N)NC(=O)[C@H](CC(C)C)NC(=O)[C@H](CCCNC(=N)N)NC(=O)[C@@H](N)Cc1c[nH]c2ccccc12)[C@@H](C)O)C(=O)N[C@@H](CCCNC(=N)N)C(N)=O (H-WRLRWRTRWRLR-NH2)    2 µM
CC(C)[C@H](NC(=O)[C@H](CCCNC(=N)N)NC(=O)[C@H](Cc1c[nH]c2ccccc12)NC(=O)[C@H](CCCNC(=N)N)NC(=O)[C@@H](NC(=O)[C@H](CCCNC(=N)N)NC(=O)[C@H](Cc1c[nH]c2ccccc12)NC(=O)[C@H](CCCNC(=N)N)NC(=O)[C@@H](NC(=O)[C@H](CCCNC(=N)N)NC(=O)[C@@H](N)Cc1c[nH]c2ccccc12)C(C)C)C(C)C)C(=O)N[C@@H](CCCNC(=N)N)C(N)=O (H-WRVRWRVRWRVR-NH2)    2 µM
CN(C)c1ccc(O)c2c1C[C@H]1C[C@H]3[C@H](N(C)C)C(O)=C(C(N)=O)C(=O)[C@@]3(O)C(O)=C1C2=O [MINOCYCLINE]    2 µM
N=C(N)NCCC[C@H](NC(=O)[C@H](Cc1ccccc1)NC(=O)[C@H](CCCNC(=N)N)NC(=O)[C@H](Cc1c[nH]c2ccccc12)NC(=O)[C@H](CCCNC(=N)N)NC(=O)[C@H](Cc1ccccc1)NC(=O)[C@H](CCCNC(=N)N)NC(=O)[C@H](Cc1c[nH]c2ccccc12)NC(=O)[C@H](CCCNC(=N)N)NC(=O)[C@H](Cc1ccccc1)NC(=O)[C@H](CCCNC(=N)N)NC(=O)[C@@H](N)Cc1c[nH]c2ccccc12)C(N)=O (H-WRFRWRFRWRFR-NH2)    4 µM

Req: What value of measured MIC is listed for CC[C@H](C)[C@H](NC(=O)[C@H](CCCNC(=N)N)NC(=O)[C@H](Cc1c[nH]c2ccccc12)NC(=O)[C@H](CCCNC(=N)N)NC(=O)[C@@H](NC(=O)[C@H](CCCCN)NC(=O)[C@H](Cc1c[nH]c2ccccc12)NC(=O)[C@H](CCCNC(=N)N)NC(=O)[C@@H](NC(=O)[C@H](CCCNC(=N)N)NC(=O)[C@@H](N)Cc1c[nH]c2ccccc12)[C@@H](C)CC)[C@@H](C)O)C(=O)N[C@@H](CCCCN)C(N)=O (H-WRIRWKTRWRIK-NH2) ?
Resp: 2 µM

Req: What value of measured MIC is listed for CC(C)C[C@H](NC(=O)[C@H](CCCNC(=N)N)NC(=O)[C@H](Cc1c[nH]c2ccccc12)NC(=O)[C@H](CCCNC(=N)N)NC(=O)[C@H](CC(C)C)NC(=O)[C@H](CCCNC(=N)N)NC(=O)[C@H](Cc1c[nH]c2ccccc12)NC(=O)[C@H](CCCNC(=N)N)NC(=O)[C@H](CC(C)C)NC(=O)[C@H](CCCNC(=N)N)NC(=O)[C@@H](N)Cc1c[nH]c2ccccc12)C(=O)N[C@@H](CCCNC(=N)N)C(N)=O (H-WRLRWRLRWRLR-NH2) ?
Resp: 2 µM

Req: What value of measured MIC is listed for C[C@@H](O)[C@H](NC(=O)[C@H](CCCCN)NC(=O)[C@H](Cc1c[nH]c2ccccc12)NC(=O)[C@H](CCCNC(=N)N)NC(=O)[C@H](Cc1ccccc1)NC(=O)[C@H](CCCNC(=N)N)NC(=O)[C@@H](N)Cc1c[nH]c2ccccc12)C(=O)N[C@@H](CCCNC(=N)N)C(=O)N[C@@H](Cc1c[nH]c2ccccc12)C(=O)N[C@@H](CCCNC(=N)N)C(=O)N[C@@H](Cc1ccccc1)C(=O)N[C@@H](CCCCN)C(N)=O (H-WRFRWKTRWRFK-NH2) ?
Resp: 2 µM
